- Study system: human delta receptor (Homo sapiens)
- Construct: 6110549
- Sequence (P41143 whole entry): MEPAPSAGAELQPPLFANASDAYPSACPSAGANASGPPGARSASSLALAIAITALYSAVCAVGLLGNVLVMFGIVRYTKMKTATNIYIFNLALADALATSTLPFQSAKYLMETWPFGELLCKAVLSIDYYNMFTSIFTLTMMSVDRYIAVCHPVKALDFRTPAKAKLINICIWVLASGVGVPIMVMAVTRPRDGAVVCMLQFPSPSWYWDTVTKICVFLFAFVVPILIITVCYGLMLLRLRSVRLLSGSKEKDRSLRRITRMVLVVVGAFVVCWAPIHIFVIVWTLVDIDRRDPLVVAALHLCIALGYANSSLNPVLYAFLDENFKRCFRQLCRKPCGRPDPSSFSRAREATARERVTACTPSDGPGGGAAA
- Experiment notes: radioligand binding, human delta receptor, HEK-293 cell membranes
- Measurement context: cell not marked (rat), species not given, read-out: δ
// classify: if (Ki < 4 nM) Y else N

>>> qualitative_label("CCOC(=O)CCCCN1CCCN(C(=O)c2cccc(C(c3cccc(O)c3)N3C[C@@H](C)N(Cc4ccccc4)C[C@@H]3C)c2)CC1 (stereo partly drawn)")
"Y"
>>> qualitative_label("CCOC(=O)CN1CCN(C(=O)c2cccc([C@H](c3cccc(O)c3)N3C[C@@H](C)N(CC4CC4)C[C@@H]3C)c2)CC1")
"Y"
>>> qualitative_label("C=CCN1C[C@H](C)N([C@@H](c2cccc(O)c2)c2cccc(C(=O)N3CCC(C(=O)OCC)CC3)c2)C[C@H]1C")
"Y"
>>> qualitative_label("CCOC(=O)CN1CCCN(C(=O)c2cccc(C(c3cccc(O)c3)N3C[C@@H](C)N(Cc4cccc(F)c4)C[C@@H]3C)c2)CC1 (stereo partly drawn)")
"N"
>>> qualitative_label("CCOC(=O)CCCN1CCN(C(=O)c2cccc([C@H](c3cccc(O)c3)N3C[C@@H](C)N(Cc4cccc(F)c4)C[C@@H]3C)c2)CC1")
"N"
>>> qualitative_label("CCOC(=O)CN1CCCN(C(=O)c2cccc(C(c3cccc(O)c3)N3C[C@@H](C)N(CC4CC4)C[C@@H]3C)c2)CC1 (stereo partly drawn)")
"Y"
